growth inhibition overview
# ASSAY_NOTES: NCI Yeast Anticancer Drug Screen. Data for the mec2-1 strain (AID 157)
# CONDITION_NOTES: S. cerevisiae mec2-1 strain, at 5.0 µM (retest, dose inferred, filed as 0.5), stronger effect = higher value
This is part of a sample that, as a whole, favours compounds with a hit. Of some 79,000 tested, about 15% had one in any assay.

{"columns": ["COMPOUND", "growth inhibition [%]"],
 "data": [
  ["COc1ccc2cc3c4cc(OC)c(OC)cc4ccn3c2c1", -1],
  ["S=c1sc2ccccc2n1CNc1ccccc1", 0],
  ["O=C(c1ccc(F)cc1)c1ccc(Cl)cc1Cl", 100],
  ["COc1ccc(C2COc3cc(O)c(O)cc3C2)cc1OC (centres undefined)", 14],
  ["CC(C)CCN(CCC(C)C)C(=S)Nc1ccccc1", 6],
  ["NS(=O)(=O)c1ccc(-n2cccc2)cc1", -2],
  ["CCC(C)Sc1nc2c([nH]1)c(=S)n(C)c(=O)n2C (centres undefined)", 20],
  ["CCC(CC)=NNc1ccc([N+](=O)[O-])cc1", 15],
  ["Cc1c(Cl)ccc2c1NC(=O)C2(O)CC(=O)c1ccc(Cl)cc1 (centres undefined)", 14],
  ["CCOC(=O)c1cc2c(nc1NCc1ccc(OC)c(OC)c1)/C(=C/c1ccccc1)CCCC2", 17],
  ["Nc1nc(-c2ccccc2)cc(-c2ccccc2O)n1", 0],
  ["Cc1ccc(N=C(N)Nc2ccc(C)cn2)nc1", 2],
  ["C/C(=N/NC(=S)NCc1ccccc1)c1ncccn1", 14],
  ["O=C(/C=C/c1cccc([N+](=O)[O-])c1)CCl", -20],
  ["Cc1c(-c2ccccc2)ccnc1/C=N/NS(=O)(=O)c1ccccc1", -1],
  ["NC1OC(COC(=O)c2ccccc2)C(O)C(OC(=O)c2ccccc2)C1OC(=O)c1ccccc1 (centres undefined)", 2],
  ["Cc1ccc(C)c(C2CCCCC2O)c1 (centres undefined)", -8],
  ["O=C1c2ccccc2C(=O)[C@@]23O[C@@]12C1(Oc2cccc4cccc(c24)O1)[C@@H]1O[C@@H]1[C@@H]3O", 84],
  ["CCCCCCCCCCCCCC(=O)NO", 99],
  ["Oc1cc2ccccc2cc1O", 5],
  ["Cc1ccccc1C(O)(c1ccccc1C)C1(O)CCN(C)CC1", -4],
  ["CC1=CC2N(C=C1)C(c1ccccc1)=NON2c1cc(C)ccn1 (centres undefined)", -23],
  ["O=[N+]([O-])C1=Cc2cc(Cl)ccc2OC1c1cccc2ccccc12 (centres undefined)", 97],
  ["CCc1nc(N)nc(N)c1-c1ccc(NCCc2ccccc2)c([N+](=O)[O-])c1", 9],
  ["O=[N+]([O-])c1cc(Cl)cc(C(c2cc(Cl)cc([N+](=O)[O-])c2O)C(Cl)(Cl)Cl)c1O", 50],
  ["COc1ccccc1C1(c2ccccc2OC)OC(=O)c2ccccc21", -1],
  ["CC1=CC(=O)C(O)=C/C1=C\\C=C\\c1ccccc1", 23],
  ["CCCCCCCCCCCCCCCCP(=O)([O-])OCC[N+](C)(C)C", -32],
  ["Cc1ccc(C2=CC(=O)/C(=C\\C(=O)c3ccc(Cl)cc3)O2)cc1", 28],
  ["O=C1C=CC(=O)N1CCCCCCN1C(=O)C=CC1=O", 29],
  ["CC(=O)OC(C#N)CC(C)(C)/[N+]([O-])=[N+](\\[O-])C(C)(C)CC(C#N)OC(C)=O (centres undefined)", 1],
  ["COc1ccc(C(=O)Nc2ccc(Cl)cc2)cc1", -26],
  ["c1ccc2nc3[nH]c4ccccc4c3cc2c1", 18],
  ["O=C(Nc1ccccc1Cl)c1cccnc1", -48],
  ["NC(=O)N/N=C1/CC2CCCCC2c2ccccc21 (centres undefined)", -4],
  ["FC(F)(F)c1ccc(NC(=S)SCc2ccc3c(c2)OCO3)cc1", -5],
  ["C(=NCCC[Si]12OCCN(CCO1)CCO2)c1ccc(C=NCCC[Si]23OCCN(CCO2)CCO3)cc1", 2],
  ["CC(O)(CO)CC(C)(O)CO (centres undefined)", 3],
  ["CN(C)CCC(=O)c1ccc2c(ccc3ccccc32)c1", 10]
]}
